Assay: NCI Yeast Anticancer Drug Screen. Data for the bub3 strain (AID 167)
Conditions: S. cerevisiae bub3 mutant strain, at 5.0 µM (retest, dose inferred, filed as 0.5), stronger effect = higher value
Compounds without any hit were thinned out: in the full panel of roughly 79,000, 15% have a hit.
property: growth inhibition (%)
Write the number in % without appending the unit.

Sample answers from the record:
molecule	assayValue
N#CC#Cc1cccc(C#CC#N)c1	98
CCCCCCCCCCCCn1cnc2ncnc(Cl)c21	-4
BrC1(c2ccccc2)C[n+]2c(-c3ccccc3)cc(-c3ccccc3)cc2-c2ccccc21 (stereo not drawn)	37
CCCCCC(C)(O)C#CC(C)(O)CCCCC (stereo not drawn)	3
CCc1nc(N)nc(N)c1-c1ccc(NCCCCCCCCCCCCN)c([N+](=O)[O-])c1	-5
CNc1ccc(N=O)cc1	25
C/C(=N\NC(=S)N1CCCC1)c1nc2ncccc2[nH]1	-40

Turning now to a further record.
Q. # get_value(readout='growth inhibition', item= "Oc1ccc2cc(Br)ccc2c1O" )
A. -5

---

Test: NCI Yeast Anticancer Drug Screen. Data for the bub3 strain (AID 167)
Settings: S. cerevisiae bub3 mutant strain, at 50.0 µM, stronger effect = higher value
Compounds without any hit were thinned out: in the full panel of roughly 79,000, 15% have a hit.
Reported growth inhibition is given for each of the following compounds.
Write the number in % without appending the unit.

Sample answers from the record:
compound	growth inhibition (%)
COc1ccc2c(c1)N=C(N)n1c(nc3ccccc31)S2	69.7
CCCCCCCCCCCC[N+](C)(CCS(=O)(=O)[O-])Cc1ccccc1 (configuration not stated)	72.1
C[P+](c1ccccc1)(c1ccc(Cl)cc1)c1ccc(Cl)cc1	69.5

Q. # get_value(readout='growth inhibition', item= "O=NNc1ccc2cc3ccc(NN=O)cc3nc2c1" )
A. 34.6

Q. # get_value(readout='growth inhibition', item= "Sc1c(Br)cc(Br)cc1Br.[Ag]" )
A. 30.7

Q. # get_value(readout='growth inhibition', item= O=C(Nc1cccc2ccccc12)OCC1CCc2ccccc2C1 (configuration not stated) )
A. 72.2

Q. # get_value(readout='growth inhibition', item= "CCOC(=O)c1ccc(O)c(OC)c1" )
A. 90.2

---

Reported growth inhibition is given for each of the following compounds.
Test: NCI Yeast Anticancer Drug Screen. Data for the sgs1 mgt1 strain (AID 161);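 note: 0% = growth of cultures given vehicle only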
Details: S. cerevisiae sgs1 mgt1 strain, at 50.0 µM (retest, dose inferred, filed as 5.0), stronger effect = higher value
About 79,000 compounds went through this panel and 15% of them were active in at least one assay; those are over-represented in the sample as a whole.
Write the number in % without appending the unit.

Sample answers from the record:
compound	growth inhibition (%)
Cc1ccc(S(=O)(=O)C(C#N)(CCC(=O)/C=C/c2ccccc2)CCC(=O)/C=C/c2ccccc2)cc1	-2
CN(C)c1ccc(N=Nc2ccc(/C=C3\CCOC3=O)cc2)cc1	-6
COC(=O)c1nnn(-c2cc(Cl)ccc2Cl)c1C(=O)c1ccc(Cl)c(Cl)c1	98
C=CCc1cccc(/C=N\N=C(/N)NO)c1O	59
CC(NNC(=S)N1CCCCCC1)c1cc2ccccc2cn1 (stereo unspecified)	96
O=NN(CCCl)C(=O)NCCSSCCNC(=O)N(CCCl)N=O (tested in a mixture with another compound)	77

Q. # get_value(readout='growth inhibition', item= "COc1ccccc1C1(c2ccccc2OC)OC(=O)c2ccccc21" )
A. -18

Q. # get_value(readout='growth inhibition', item= "[O-]c1c(-c2cccc3ccccc23)sc(-c2cccc3ccccc23)[n+]1-c1ccccc1" )
A. 92

Q. # get_value(readout='growth inhibition', item= "COc1ccc(CSC(=S)Nc2cc(C)c(C)cc2[N+](=O)[O-])cc1" )
A. 96

Q. # get_value(readout='growth inhibition', item= "CCCCc1ccc2c(c1)Nc1cc3ccccc3cc1N2" )
A. 56

Q. # get_value(readout='growth inhibition', item= "CCCCCCCCCCCCNCCNCCN" )
A. 96

Q. # get_value(readout='growth inhibition', item= "c1ccc([CH2][Sn]([CH2]c2ccccc2)([S]c2cccc3cccnc23)[S]c2cccc3cccnc23)cc1" )
A. 59

Q. # get_value(readout='growth inhibition', item= "COc1ccc2cc3c4cc(OC)c(OC)cc4ccn3c2c1" )
A. 81

Q. # get_value(readout='growth inhibition', item= "Nc1nc(-c2ccccc2)c(N=Nc2c(Cl)cccc2Cl)s1" )
A. 94

Q. # get_value(readout='growth inhibition', item= "COc1ccc(NC(=O)Nc2ccc(Cl)cc2)nn1" )
A. 3

Q. # get_value(readout='growth inhibition', item= "CN(C)c1ccc(/C=C/c2nc3ccccc3s2)cc1" )
A. 91

Q. # get_value(readout='growth inhibition', item= CC1(c2ccc(Cl)cc2)OC(=O)C(=Cc2ccc([N+](=O)[O-])s2)C(=O)O1 (stereo unspecified) )
A. 99

Q. # get_value(readout='growth inhibition', item= "c1ccc(CCC2=Nc3ccccc3CO2)cc1" )
A. -63

Q. # get_value(readout='growth inhibition', item= CSc1ncnc2nn(C3OC(COC(=O)c4ccccc4)C(OC(=O)c4ccccc4)C3OC(=O)c3ccccc3)nc12 (stereo unspecified) )
A. 1

Q. # get_value(readout='growth inhibition', item= CCCCC(Oc1cc(C(C)(C)C)c(O)c(C(C)(C)C)c1)C(=O)O (stereo unspecified) )
A. 97

Q. # get_value(readout='growth inhibition', item= NC1C(=O)C2CCCCC2C(=O)C1C(=O)c1ccccc1 (stereo unspecified) )
A. -6

Q. # get_value(readout='growth inhibition', item= "CCCCOC(=O)c1cnc[nH]c1=O" )
A. 8

---

Experiment: NCI Yeast Anticancer Drug Screen. Data for the mec2-1 strain (AID 157)
Conditions: S. cerevisiae mec2-1 strain, at 50.0 µM (retest, dose inferred, filed as 5.0), stronger effect = higher value
The panel holds about 79,000 compounds, 15% with a hit somewhere; the sample as a whole holds those more often.
Reported growth inhibition is given for each of the following molecules.
Write the number in % without appending the unit.

Sample answers from the record:
molecule	unitAbbreviation	growth inhibition
Oc1cccc(NCSc2ccc(Cl)cc2)c1	%	95
CCCCCCCCCCCCCCCC[N+](C)(C)CCl	%	100
CN1C/C(=C\c2ccccc2)C(=O)/C(=C/c2ccccc2)C1	%	100

Q. # get_value(readout='growth inhibition', item= "CC1CCN(CC(=O)N2c3ccccc3Sc3cc4ccccc4cc32)CC1" )
A. -20

Q. # get_value(readout='growth inhibition', item= "CCCCCCCCCCCCCCCCCCOC(=O)Nc1ccc(C)c(NC(=O)OCCCCCCCCCCCCCCCCCC)c1" )
A. -1

Q. # get_value(readout='growth inhibition', item= CC(C)C1COC(c2ccc3ccccc3c2-c2c(O[Si](C)(C)C(C)(C)C)ccc3ccccc23)=N1 (stereo unspecified) )
A. 14

Q. # get_value(readout='growth inhibition', item= CC(C)(C)c1ccc2c(c1)C(O)(c1ccccc1)C1OC1(C(C)(C)C)C2=O (stereo unspecified) )
A. 82

---

Assay: NCI Yeast Anticancer Drug Screen. Data for the rad50 strain (AID 155);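 note: 0% = growth of vehicle-only cultures of the same strain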
Details: S. cerevisiae rad50 strain growth inhibition; at 5.0 µM (retest, dose inferred, filed as 0.5)
Experimental: Growth inhibition of yeast strains with defined genetic alterations is measured as a screen for potential anti-cancer activity. Selected strains with alterations in DNA damage repair or cell cycle control were exposed to compounds and growth inhibition was measured relative to vehicle treated controls. The strain used in this assay is rad50
The panel holds about 79,000 compounds, 15% with a hit somewhere; the sample as a whole holds those more often. The source made the active and inactive calls. Rule as the data show it: active = growth inhibition above about 70%; inactive = the rest.
# output must be one of active, inactive

The following molecules have reported results that may help.
molecule	qualitativeLabel
CCOC(=O)c1[nH]cc(C)c1-c1ccc2c(-c3ccccc3)nc3ccccc3n12	inactive
O=C(NCCN1CCCC1)c1cn2c(ccc3sc4ccccc4c(=O)c32)n1	inactive
O=C1NC(=S)S/C1=C\c1cc(Cl)ccc1O	inactive

Q. Could you check what this test reported for "O=C(O)/C(=C/c1ccccc1)c1ccc2ccccc2c1Br" ?
A. inactive

Q. Could you check what this test reported for "Cc1cc(C)nc(NS(=O)(=O)c2ccc(Nc3nc(-c4cccc([N+](=O)[O-])c4)cs3)cc2)n1" ?
A. inactive

---

Assay: NCI Yeast Anticancer Drug Screen. Data for the sgs1 mgt1 strain (AID 161);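 note: 0% = growth of cultures given vehicle only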
Details: S. cerevisiae sgs1 mgt1 strain, at 5.0 µM (retest, dose inferred, filed as 0.5)
Compounds without any hit were thinned out: in the full panel of roughly 79,000, 15% have a hit. Active and inactive are the calls of the source. No stated cut-off is given here; in the data, active means growth inhibition above about 70%; inactive means the rest.
# output must be one of t (active), f (inactive)

The following molecules have reported results that may help.
molecule	qualitativeLabel
CC(=O)N1c2ccccc2Sc2ccc(C(=O)CCl)cc21	f
Cc1ccc(C(c2ccc(N(C)C)cc2)c2ccc(N(C)C)cc2)cc1	t
CCc1ccccc1NC(=O)C(C#N)C1=C(Cl)C(=O)c2ccccc2C1=O (centres undefined)	f

Note: attention shifts to another entry.
Q. Could you check what this test reported for "CCN(CC)CCNc1ccc(C)c2sc3ccc(OC)cc3c(=O)c12" ?
A. f

All values here come from PubChem BioAssay (NCI).
